Item-by-item account of inhibition
Assay: HTRF signal interference by compounds, confirmation, artefact control for SUMOylation inhibitor project, biochemical, uHTS (AID 2069)
Conditions: HTRF interference counterscreen, fluorescence, at 35 µM, stronger effect = higher value
Out of some 1,200 compounds screened, about 210 (18%) were called active. The list is a sample of the results.
Write the value in % as a bare number.

// known answers, use as guide
1) O=c1nc(Nc2ccc(Br)cc2)sc2ccc([N+](=O)[O-])cc12 | -4
2) COCCN(CCOC)S(=O)(=O)c1ccc(C(=O)Nc2nc3c(s2)CCc2ccccc2-3)cc1 | 36.7
3) COc1ccc2c(c1)Cc1sc(NC(=O)c3ccccc3)nc1-2 | 13.9
4) CC(=O)Nc1ccc2nc3ccccc3nc2c1 | 36.7
5) CC(=O)Nc1cccc(NC(=S)Nc2cccc3ccccc23)c1 | -2.65

I have this molecule here, Oc1ccc(NCc2cccc(OCc3ccccc3)c2)cc1 , and I need its recorded inhibition.
-19.4

----------
Experiment: HTRF signal interference by compounds, confirmation, artefact control for SUMOylation inhibitor project, biochemical, uHTS (AID 2069)
Settings: HTRF interference counterscreen, fluorescence, at 35 µM
In all, about 1,200 compounds went through this assay and about 210 (18%) were called active. Rule as the data show it: active = inhibition above about 30%; inactive = the rest. These entries were drawn from the full list.
Hi! Could you answer with just one of these? active, inactive

// known answers, use as guide
1) O=C(Cc1ccccc1)Nc1nnc(-c2ccco2)s1 | inactive
2) O=C1C=C(Nc2ccccc2)c2ccccc2C1=O | inactive
3) CCCCn1c(NS(=O)(=O)c2ccccc2)c(S(=O)(=O)c2ccc(C)cc2)c2nc3ccccc3nc21 | inactive

Look up the recorded call for O=C(COc1ccc2oc(-c3ccco3)cc(=O)c2c1)N1CCCCC1 in this test.
active

Look up the recorded call for Cc1cccc(/C=N/NC(=O)C(C)Nc2cccc3ccccc23)n1 (stereo unspecified) in this test.
inactive

Look up the recorded call for O=C1C=C(N2CCOCC2)c2ccccc2C1=O in this test.
active

Look up the recorded call for CCc1ccc(NC(=O)NNC(=O)c2cc3ccccc3cc2O)cc1 in this test.
inactive

Look up the recorded call for O=C(NCc1ccccc1)Nc1cccn(Cc2ccccc2F)c1=O in this test.
inactive

Look up the recorded call for Cc1ccc(NC2=CC(=O)C(=O)c3ccccc32)cc1 in this test.
inactive

Look up the recorded call for O=C(CNc1cccc2ccccc12)N/N=C/c1ccccn1 in this test.
inactive

Look up the recorded call for CC(=O)N1C(=S)NC(=O)/C1=C1/C(=O)N(CC(=O)Nc2cccc(C)c2)c2ccccc21 in this test.
inactive

----------
Assay: HTRF signal interference by compounds, confirmation, artefact control for SUMOylation inhibitor project, biochemical, uHTS (AID 2069)
Conditions: HTRF interference counterscreen, fluorescence, at 35 µM
Among all 1,200 compounds or so, about 210 (18%) were called active. No stated cut-off is given here; in the data, active means inhibition above about 30%; inactive means the rest. A selection follows.
Hi! Could you answer with just one of these? active, inactive

// known answers, use as guide
1) Cc1ccc(NC(=O)CN2C(=O)S/C(=C\c3cc(Cl)c(OCC(=O)O)c(Cl)c3)C2=O)cc1 | inactive
2) Cc1cccc(NC2=C(NCCO)C(=O)c3ccccc3C2=O)c1 | inactive
3) O=C1C(C2=NC(c3ccccn3)C3C(=O)N(c4ccc(Cl)cc4Cl)C(=O)C23)=C(O)c2ccccc21 (centres undefined) | inactive

Look up the recorded call for CCN(CC)C(=O)C1CCCN(C(=O)Nc2ccc3nsnc3c2)C1 (centres undefined) in this test.
inactive

----------
Test: HTRF signal interference by compounds, confirmation, artefact control for SUMOylation inhibitor project, biochemical, uHTS (AID 2069)
Conditions: HTRF interference counterscreen, fluorescence, at 35 µM
In all, about 1,200 compounds went through this assay and about 210 (18%) were called active. Rule as the data show it: active = inhibition above about 30%; inactive = the rest. Only a sample is shown.
Hi! Could you answer with just one of these? active, inactive

1. COc1ccc(Cc2n[nH]c(=S)n2NC(=O)Nc2ccc(Cl)c(Cl)c2)cc1 | active

Look up the recorded call for CCCCCn1c(N)c(C#N)c2nc3ccccc3nc21 in this test.
inactive

Look up the recorded call for CCCCn1c(NC(C)=O)c(C#N)c2nc3ccccc3nc21 in this test.
active

----------
Test: HTRF signal interference by compounds, confirmation, artefact control for SUMOylation inhibitor project, biochemical, uHTS (AID 2069)
Conditions: HTRF interference counterscreen, fluorescence, at 35 µM, stronger effect = higher value
Among all 1,200 compounds or so, about 210 (18%) were called active. The list is a sample of the results.
endpoint.name: inhibition (%)
Write the value in % as a bare number.

// known answers, use as guide
1. COc1cccc(/C=N\NC(=O)C2=NNC(=O)C2C)c1O (stereo unspecified) | 24.4
2. O=[N+]([O-])c1c(NCCO)cc(N2CCCCCC2)c2nonc12 | 22.4
3. Cc1cccc(C)c1OCC(=O)N=Nc1c(O)[nH]c2ccc(Br)cc12 | -1.15
4. C[n+]1cccc2c(Br)ccc([O-])c21 | -20.8
5. O=c1[nH]cc(I)cc1I | -3.65
6. Cc1oc2c(c(C)cc3oc(=O)c(CC(=O)NCC(=O)NCC(=O)NCC(C)O)c(C)c32)c1C (stereo unspecified) | 47.8
7. Cn1c2ccccc2c(=O)n2c(=O)c3ccccc3cc12 | 8.7
8. COc1cccc(/C=N/NC(=O)C(=O)N/N=C/c2cccc(OC)c2O)c1O | 48
9. N#Cc1c(-c2ccc(Cl)cc2)cc(-c2cccs2)nc1SCC(=O)O | -4.9
10. O=C(Nc1ccc2nc(-c3ccco3)c(-c3ccco3)nc2c1)N1CCN(c2ccccn2)CC1 | 12.2

Here is another compound to look at.
I have this compound here, COc1cc(/C=N/NC(=O)c2ccccc2O)ccc1OCC(=O)Nc1ccccc1 , and I need its recorded inhibition.
15.4

----------
Assay: HTRF signal interference by compounds, confirmation, artefact control for SUMOylation inhibitor project, biochemical, uHTS (AID 2069)
Settings: HTRF interference counterscreen, fluorescence, at 35 µM, stronger effect = higher value
About 210 (18%) of roughly 1,200 compounds were called active. Only a sample is shown.
endpoint.name: inhibition (%)
Write the value in % as a bare number.

// known answers, use as guide
1. CC(C)N(C(=O)Nc1ccc2nccnc2c1)C(C)C | 31.1
2. O=C(CSc1nnc(SCc2ccc(Cl)cc2)s1)N/N=C/c1c[nH]c2ccccc12 | 9.75
3. CC1CCCN(C2=C(NS(=O)(=O)c3ccc(Br)cc3)C(=O)c3ccccc3C2=O)C1 (stereo unspecified) | -7.35
4. CCN(CC)CCOC(=O)c1ccc(N/C=C(/C#N)c2nc(-c3ccc(OC)c(OC)c3)cs2)cc1 | 6.75

I have this compound here, CC1=NN(c2ccc(Br)cc2)C(=O)/C1=C/c1cccs1 , and I need its recorded inhibition.
-19.8

I have this compound here, CN(c1ccccc1)c1cc(=O)[nH]c(=O)[nH]1 , and I need its recorded inhibition.
0.55

I have this compound here, CN(C)/C=N/c1nc2nccc(-c3cccnc3)n2n1 , and I need its recorded inhibition.
49.2

I have this compound here, CC(C)C(=O)Nc1cccc(C(=O)NCc2ccc3c(c2)OCO3)c1 , and I need its recorded inhibition.
-4.7

----------
Experiment: HTRF signal interference by compounds, confirmation, artefact control for SUMOylation inhibitor project, biochemical, uHTS (AID 2069)
Details: HTRF interference counterscreen, fluorescence, at 35 µM
Out of some 1,200 compounds screened, about 210 (18%) were called active. Cut-off read from the data, not from the text of the source: active = inhibition above about 30%; inactive = the rest. The list is a sample of the results.
Hi! Could you answer with just one of these? active, inactive

// known answers, use as guide
1. Cc1cc(C)c(S(=O)(=O)/N=C2/C=C(SCC(=O)O)C(=O)c3ccccc32)cc1C | inactive
2. S=c1[nH]nc(-c2cc(-c3ccco3)[nH]n2)n1-c1ccccc1Cl | inactive
3. N#Cc1ccsc1NC(=O)CN1CCN(c2ccc(O)cc2)CC1 | inactive
4. COc1ccc(OC)c(S(=O)(=O)NCCc2cn3ccsc3n2)c1 | inactive
5. Cc1ccoc1C(=O)NCCCNC(=O)c1occc1C | inactive

Look up the recorded call for O=C(Nc1nnc(-c2ccccc2SCc2ccccc2)s1)Nc1ccccc1F in this test.
inactive

Look up the recorded call for COc1ccc(CNC(=O)c2c(N)n(CCCN3CCOCC3)c3nc4ccccc4nc23)cc1 in this test.
inactive

Look up the recorded call for CCOc1ccc(NC(=S)Nc2cccc3ccccc23)cc1 in this test.
inactive

Look up the recorded call for C=CCn1c(N)c(C(=O)Nc2ccccc2)c2nc3ccccc3nc21 in this test.
inactive

Look up the recorded call for NC(=O)CC(NC(=O)Cc1ccc(Br)cc1)c1ccc(N2CCC(Br)CC2)c([N+](=O)[O-])c1 (stereo not drawn) in this test.
inactive

Look up the recorded call for O=C(Nc1ccccc1)c1ccccc1CCc1ccccc1 in this test.
inactive

Look up the recorded call for NNc1nc2c(Cl)ccc(Cl)c2s1 in this test.
inactive

Look up the recorded call for CC1=NN(c2ccccc2)C(=O)/C1=C\c1cn(CCC#N)nc1-c1ccc(Cl)cc1 in this test.
inactive
